Target: human cationic trypsin (human), P07477
Experiment: competitive inhibition assay with peptide substrate
pKi: −log10 of the molar value.
quantityKind: pKi

> print(dat)
                                     binder  valuemeasured
1  RVCPRILKKCRRDSDCPGACICRGNGYCG (modifications not checked) [acyclic MCoTI-II variant M]           9.40
